Target: TLR8 (Homo sapiens)
Sequence (Q9NR97 27-1041): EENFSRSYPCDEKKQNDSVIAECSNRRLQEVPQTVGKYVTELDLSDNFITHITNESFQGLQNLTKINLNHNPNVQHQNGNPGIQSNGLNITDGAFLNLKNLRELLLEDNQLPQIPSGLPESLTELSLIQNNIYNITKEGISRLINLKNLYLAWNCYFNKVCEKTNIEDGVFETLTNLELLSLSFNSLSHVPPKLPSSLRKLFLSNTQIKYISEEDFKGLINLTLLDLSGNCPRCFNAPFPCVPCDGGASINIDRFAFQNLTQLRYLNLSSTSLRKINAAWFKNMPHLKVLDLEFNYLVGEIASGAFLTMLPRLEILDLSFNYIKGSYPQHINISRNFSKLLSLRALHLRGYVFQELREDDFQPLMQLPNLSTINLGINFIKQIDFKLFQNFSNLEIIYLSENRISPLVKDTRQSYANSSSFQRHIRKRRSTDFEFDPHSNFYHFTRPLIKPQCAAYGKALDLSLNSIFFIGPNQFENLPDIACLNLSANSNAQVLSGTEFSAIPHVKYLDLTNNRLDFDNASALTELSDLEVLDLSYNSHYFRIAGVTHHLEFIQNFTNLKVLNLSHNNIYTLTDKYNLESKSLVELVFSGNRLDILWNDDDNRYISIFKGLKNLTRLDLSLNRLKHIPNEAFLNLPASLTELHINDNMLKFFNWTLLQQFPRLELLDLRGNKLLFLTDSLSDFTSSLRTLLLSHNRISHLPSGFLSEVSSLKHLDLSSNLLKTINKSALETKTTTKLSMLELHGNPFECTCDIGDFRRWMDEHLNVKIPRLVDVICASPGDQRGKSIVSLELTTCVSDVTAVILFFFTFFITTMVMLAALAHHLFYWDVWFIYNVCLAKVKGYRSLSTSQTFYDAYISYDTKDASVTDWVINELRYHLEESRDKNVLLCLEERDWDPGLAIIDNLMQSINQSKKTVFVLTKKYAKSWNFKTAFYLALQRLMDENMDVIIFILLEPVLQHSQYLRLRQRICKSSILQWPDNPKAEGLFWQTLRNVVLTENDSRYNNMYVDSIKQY
Assay: HEK-TLR8 NF-κB-luciferase reporter, R848 or Motolimod stimulation (potentiation or inhibition)
Type: cell-based
Design: expressed in transfected cells; host or cells: 293XLhTLR8 (HEK293)
Settings: ASO 500 nM; relative to R848 only
endpoint: TLR8 500 nM (averaged NF-κB-Luciferase level relative to R848 condition, fold increase)

biosequence="GGTTACGGCTCAGTAT (antisense; LNA-modified, pattern not given here) [CAMSAP1-4295 LNA KL]" target_desc="TLR8 (Homo sapiens)" measured_result=1.848
biosequence="CCAGCAGGTCAGCAAA (antisense; LNA-modified, pattern not given here) [HPRT LNA-388 KL]" target_desc="TLR8 (Homo sapiens)" measured_result=1.499
biosequence="TTCGTGGGGTCCTTTT (antisense; LNA-modified, pattern not given here) [HPRT LNA-661 V1]" target_desc="TLR8 (Homo sapiens)" measured_result=3.144
biosequence="GTCAAGGGCATATCCT (antisense; LNA-modified, pattern not given here) [HPRT LNA-732 KL]" target_desc="TLR8 (Homo sapiens)" measured_result=2.301
biosequence="AGGACTCCAGATGTTT (antisense; LNA-modified, pattern not given here) [HPRT LNA pos cont]" target_desc="TLR8 (Homo sapiens)" measured_result=1.034
biosequence="AACACTTCGTGGGGTC (antisense; LNA-modified, pattern not given here) [HPRT LNA-666 V1]" target_desc="TLR8 (Homo sapiens)" measured_result=0.882
biosequence="ACCACGTCTGCTCTAA (antisense; LNA-modified, pattern not given here) [CAMSAP1-1635 LNA KL]" target_desc="TLR8 (Homo sapiens)" measured_result=4.259
biosequence="GTATCGAAAGAGTCTG (antisense; LNA-modified, pattern not given here) [EGFR-3908 LNA KL]" target_desc="TLR8 (Homo sapiens)" measured_result=1.781
biosequence="TGGTCCACAACCCCTT (antisense; LNA-modified, pattern not given here) [MB21D1-697 LNA V1]" target_desc="TLR8 (Homo sapiens)" measured_result=1.454
biosequence="TGCACACTTCGTACCC (antisense; LNA-modified, pattern not given here) [CAMSAP1-4916 LNA V1]" target_desc="TLR8 (Homo sapiens)" measured_result=0.370

###

TLR7 500 nM (averaged NF-κB-Luciferase level relative to R848 condition): recorded values
Target: human TLR7 (Homo sapiens, UniProt Q9NYK1)
Construct: HA; host or cells: 293XL-hTLR7-HA (HEK293)
Sequence (Q9NYK1 27-1049): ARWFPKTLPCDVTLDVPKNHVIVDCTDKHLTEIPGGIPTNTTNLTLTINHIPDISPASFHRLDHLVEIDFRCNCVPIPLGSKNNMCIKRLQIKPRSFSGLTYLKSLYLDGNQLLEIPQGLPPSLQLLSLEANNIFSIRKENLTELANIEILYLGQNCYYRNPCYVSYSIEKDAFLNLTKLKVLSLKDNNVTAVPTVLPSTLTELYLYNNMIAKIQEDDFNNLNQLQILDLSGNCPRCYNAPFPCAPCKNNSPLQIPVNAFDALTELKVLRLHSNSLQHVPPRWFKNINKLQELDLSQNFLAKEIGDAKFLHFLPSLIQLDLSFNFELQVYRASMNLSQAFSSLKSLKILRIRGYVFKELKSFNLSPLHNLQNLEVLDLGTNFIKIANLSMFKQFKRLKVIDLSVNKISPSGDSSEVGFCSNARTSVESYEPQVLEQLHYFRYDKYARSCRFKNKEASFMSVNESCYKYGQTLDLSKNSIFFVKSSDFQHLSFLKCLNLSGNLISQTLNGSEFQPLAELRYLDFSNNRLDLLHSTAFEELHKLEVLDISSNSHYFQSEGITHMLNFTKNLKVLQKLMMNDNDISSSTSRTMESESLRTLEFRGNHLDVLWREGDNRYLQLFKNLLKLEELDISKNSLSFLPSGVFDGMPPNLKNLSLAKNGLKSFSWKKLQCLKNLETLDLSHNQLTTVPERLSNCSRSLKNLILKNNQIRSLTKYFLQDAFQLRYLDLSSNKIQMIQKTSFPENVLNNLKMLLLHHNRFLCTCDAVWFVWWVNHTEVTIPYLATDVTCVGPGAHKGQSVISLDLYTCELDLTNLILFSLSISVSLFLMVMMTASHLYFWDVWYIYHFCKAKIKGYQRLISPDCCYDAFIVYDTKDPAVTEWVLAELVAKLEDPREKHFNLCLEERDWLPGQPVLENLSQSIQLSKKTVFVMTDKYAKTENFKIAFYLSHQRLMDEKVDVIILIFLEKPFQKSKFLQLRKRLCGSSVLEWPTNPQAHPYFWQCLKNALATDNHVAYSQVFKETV
Assay: HEK-TLR7 NF-κB-luciferase reporter, R848 stimulation
Type: cell-based
Conditions: ASO 500 nM; relative to R848 only, given as fraction
endpoint: TLR7 500 nM (averaged NF-κB-Luciferase level relative to R848 condition)

biosequence="CCATCCATGAGGTCCT (antisense; LNA-modified, pattern not given here) [CTNN2B-2545 LNA V1]" target_desc="human TLR7 (Homo sapiens, UniProt Q9NYK1)" measured_result=0.644
biosequence="ACACTTCGTGGGGTCC (antisense; LNA-modified, pattern not given here) [HPRT LNA-665 V1]" target_desc="human TLR7 (Homo sapiens, UniProt Q9NYK1)" measured_result=0.086
biosequence="CCCACTTGGCAGACCA (antisense; LNA-modified, pattern not given here) [CTNN2B-1576 LNA V1]" target_desc="human TLR7 (Homo sapiens, UniProt Q9NYK1)" measured_result=0.639
biosequence="GTATCGAAAGAGTCTG (antisense; LNA-modified, pattern not given here) [EGFR-3908 LNA KL]" target_desc="human TLR7 (Homo sapiens, UniProt Q9NYK1)" measured_result=0.113
biosequence="TGATGGCCTCCCATCT (antisense; LNA-modified, pattern not given here) [HPRT LNA-332 V1]" target_desc="human TLR7 (Homo sapiens, UniProt Q9NYK1)" measured_result=0.153
biosequence="CTTGAAGCATCGTATC (antisense; LNA-modified, pattern not given here) [CTNN2B-3648 LNA KL]" target_desc="human TLR7 (Homo sapiens, UniProt Q9NYK1)" measured_result=0.044
biosequence="ATGGCCTCCCATCTCC (antisense; LNA-modified, pattern not given here) [HPRT LNA-330 V1]" target_desc="human TLR7 (Homo sapiens, UniProt Q9NYK1)" measured_result=0.117
biosequence="ACGTTCAGTCCTGTCC (antisense; LNA-modified, pattern not given here) [HPRT LNA-294 V1]" target_desc="human TLR7 (Homo sapiens, UniProt Q9NYK1)" measured_result=0.136
biosequence="AACCCCTTTCACCATC (antisense; LNA-modified, pattern not given here) [MB21D1-689 LNA KL]" target_desc="human TLR7 (Homo sapiens, UniProt Q9NYK1)" measured_result=0.426
biosequence="TGTCTGGAAGCTTCCT (antisense; LNA-modified, pattern not given here) [CTNN2B-808 LNA V1]" target_desc="human TLR7 (Homo sapiens, UniProt Q9NYK1)" measured_result=0.278
biosequence="TCCGCCCAAAGGGAAC (antisense; LNA-modified, pattern not given here) [HPRT LNA-1027 KL]" target_desc="human TLR7 (Homo sapiens, UniProt Q9NYK1)" measured_result=0.543
biosequence="GCCATCCACTTGATAG (antisense; LNA-modified, pattern not given here) [EGFR-2874 LNA V1]" target_desc="human TLR7 (Homo sapiens, UniProt Q9NYK1)" measured_result=0.123
biosequence="GATAGCACCTTCAGCA (antisense; LNA-modified, pattern not given here) [CTNN2B-1294 LNA KL]" target_desc="human TLR7 (Homo sapiens, UniProt Q9NYK1)" measured_result=0.049
biosequence="AGGCCCTTCGCACTTC (antisense; LNA-modified, pattern not given here) [EGFR-1225 LNA V1]" target_desc="human TLR7 (Homo sapiens, UniProt Q9NYK1)" measured_result=0.164
biosequence="GCCATGCTGGCTCGGA (antisense; LNA-modified, pattern not given here) [CAMSAP1-2584 LNA V1]" target_desc="human TLR7 (Homo sapiens, UniProt Q9NYK1)" measured_result=0.175
biosequence="GGTCATTACAATAGCT (antisense; LNA-modified, pattern not given here) [HPRT LNA-475 KL]" target_desc="human TLR7 (Homo sapiens, UniProt Q9NYK1)" measured_result=0.049
biosequence="CTTCGTGGGGTCCTTT (antisense; LNA-modified, pattern not given here) [HPRT LNA-662 V1]" target_desc="human TLR7 (Homo sapiens, UniProt Q9NYK1)" measured_result=0.233
biosequence="TCTTCATCGGCCCTGC (antisense; LNA-modified, pattern not given here) [CAMSAP1-2112 LNA V1]" target_desc="human TLR7 (Homo sapiens, UniProt Q9NYK1)" measured_result=0.511
biosequence="TGCTCCTCGGTCTCCC (antisense; LNA-modified, pattern not given here) [CAMSAP1-1850 LNA V1]" target_desc="human TLR7 (Homo sapiens, UniProt Q9NYK1)" measured_result=0.595
biosequence="CGCTTTTCTGTCTGGT (antisense; LNA-modified, pattern not given here) [CTNN2B-311 LNA KL]" target_desc="human TLR7 (Homo sapiens, UniProt Q9NYK1)" measured_result=0.142
biosequence="GTCTCTGGAGCTTCCT (antisense; LNA-modified, pattern not given here) [CAMSAP1-2456 LNA V1]" target_desc="human TLR7 (Homo sapiens, UniProt Q9NYK1)" measured_result=0.084
biosequence="CATCCACCACGTCGTC (antisense; LNA-modified, pattern not given here) [EGFR-3266 LNA V1]" target_desc="human TLR7 (Homo sapiens, UniProt Q9NYK1)" measured_result=0.353
biosequence="CCAAGATCAGCAGTCT (antisense; LNA-modified, pattern not given here) [CTNN2B-2341 LNA KL]" target_desc="human TLR7 (Homo sapiens, UniProt Q9NYK1)" measured_result=0.697
biosequence="AGCTTCGAGGCCCCAG (antisense; LNA-modified, pattern not given here) [MB21D1-616 LNA V1]" target_desc="human TLR7 (Homo sapiens, UniProt Q9NYK1)" measured_result=0.111
biosequence="GAGGTCTTGGCTTCGT (antisense; LNA-modified, pattern not given here) [MB21D1-525 LNA V1]" target_desc="human TLR7 (Homo sapiens, UniProt Q9NYK1)" measured_result=0.067
